These entries and their values trace back to the supplement of paper PMC10567573.

Reported protein stability index is given for each of the following variants.
B1: FUNDC2 (parent)
chain: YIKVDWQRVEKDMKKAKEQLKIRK

Variants of: B1
method.notes: protein stability index of a GFP-peptide fusion (GPS, HEK-293T) (PSI 1-6); higher = more stable;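 note: lentivirally expressed fusions sorted by FACS into six bins by GFP to DsRed ratio, PSI derived from sequencing read proportions per bin multiplied by bin number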
test.context: c terminus: a fixed tail appended
observable: protein stability index

>>> readout_value("D12R")
1.91
>>> readout_value("V4S")
2.25
>>> readout_value("L20Y")
1.91
